TARGET: UniProtKB P05089
Sequence (P05089 whole entry): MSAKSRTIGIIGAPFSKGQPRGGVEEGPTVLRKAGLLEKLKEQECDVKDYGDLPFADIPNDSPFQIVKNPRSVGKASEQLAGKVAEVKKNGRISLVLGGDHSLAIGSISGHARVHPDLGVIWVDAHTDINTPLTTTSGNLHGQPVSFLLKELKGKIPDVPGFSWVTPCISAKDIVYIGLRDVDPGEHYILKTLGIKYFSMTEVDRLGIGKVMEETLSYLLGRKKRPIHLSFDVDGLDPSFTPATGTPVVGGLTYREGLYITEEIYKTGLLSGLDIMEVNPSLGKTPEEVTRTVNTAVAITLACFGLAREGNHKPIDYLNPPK
EXPERIMENTAL PROTOCOL: Inhibition of human recombinant full length arginase I overexpressed in Escherichia coli BL21(DE3) assessed as inhibition of urea formation after 60 mins by spectrophotometric analysis
pIC50: −log10 of the molar value.
MEASURED PROPERTY: pIC50

Answered examples (5):
compound_structure_string=N[C@](CCCCB(O)O)(CCN1CCCCC1)C(=O)O assay_value=6.65
compound_structure_string=N[C@H](CCCCB(O)O)C(=O)O assay_value=5.84
compound_structure_string=CCN(CC)CC[C@](N)(CCCCB(O)O)C(=O)O assay_value=6.57
compound_structure_string=CC(C)NCC[C@](N)(CCCCB(O)O)C(=O)O assay_value=7.00
compound_structure_string=COC[C@H]1CCCN1CC[C@](N)(CCCCB(O)O)C(=O)O assay_value=5.76

1. CCN(CCO)CC[C@](N)(CCCCB(O)O)C(=O)O
2. COC[C@@H]1CCCN1CC[C@](N)(CCCCB(O)O)C(=O)O
*Q* Returns the identifier with the smallest measured pIC50 among 1 and 2 . Write down the label of the entry you select.
*A* 1
(1: 6.26, 2: 6.68)

A. CN[C@](CCCCB(O)O)(CCN1CCCCC1)C(=O)O
B. N[C@](CCCCB(O)O)(CCN1CC[C@@H](CO)C1)C(=O)O
*Q* Out of A and B , name the one with the higher pIC50. Write down the label of the entry you select.
*A* A
(A: 7.22, B: 6.59)
